Target: KHK-C expressed in NRK-52E cells (Homo sapiens (Human), UniProt P50053)
Sequence (P50053 whole entry): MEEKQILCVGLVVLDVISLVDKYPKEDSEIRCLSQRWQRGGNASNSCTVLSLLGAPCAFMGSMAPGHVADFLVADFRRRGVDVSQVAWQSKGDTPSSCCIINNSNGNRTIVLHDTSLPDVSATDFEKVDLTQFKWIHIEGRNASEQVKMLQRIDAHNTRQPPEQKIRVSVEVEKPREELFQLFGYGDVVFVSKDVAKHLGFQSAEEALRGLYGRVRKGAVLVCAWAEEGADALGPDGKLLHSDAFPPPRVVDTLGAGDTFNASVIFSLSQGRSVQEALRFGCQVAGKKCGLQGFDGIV
Experiment: KHK-C Cell-based Assay (EC50), NRK CTG, fructose-mediated ATP-depletion
metric: EC50 (µM)
// return numeric value only (unit: µM, not printed)

>>> observed_measurement("NC1(c2ccc(-c3nc(N4CC[C@@H]4CF)nc4c3CCC4(F)F)cc2)COC1 [Example 471]")
0.0064
>>> observed_measurement("C[C@H]1CCN1c1nc2c(c(-c3ccc(C(C)(C)O)s3)n1)CCC2 [Example 376]")
0.0373
>>> observed_measurement("C[C@H]1CCN1c1nc2c(c(-c3ccc4c(c3)CN(S(=O)(=O)CCO)CC4)n1)CCC2 [Example 605]")
0.15

Fill in the recorded EC50 for this compound, with KHK-C expressed in NRK-52E cells (Homo sapiens (Human), UniProt P50053) as test system: C[C@H]1CCN1c1nc2c(c(-c3cnc(C(C)(C)O)s3)n1)CCC2 [Example 213]
0.0525

Fill in the recorded EC50 for this compound, with KHK-C expressed in NRK-52E cells (Homo sapiens (Human), UniProt P50053) as test system: C[C@H]1[C@H](O)CN1c1nc(-c2cn(C3CNC3)nn2)c2c(n1)C(F)(F)CC2 [Example 647]
0.225

Fill in the recorded EC50 for this compound, with KHK-C expressed in NRK-52E cells (Homo sapiens (Human), UniProt P50053) as test system: C[C@H]1CCN1c1nc2c(c(-c3ccc(F)c(S(N)(=O)=O)c3)n1)CCC2 [Example 122]
0.0518

====

Molecular target: KHK-C expressed in NRK-52E cells (Homo sapiens (Human), UniProt P50053)
Assay: KHK-C Cell-based Assay (EC50), NRK CTG, fructose-mediated ATP-depletion
Conditions: read-out: NRK CTG EC50; NRK-52E cells, Cell-Titer Glo, 25 mM fructose
In this section we review reported log10(EC50) values for a set of compounds.
Answers are given as log10 of EC50 in nM.

Worked cases, log10(EC50) given:
>>> observed_measurement("C[C@H]1[C@H](O)CN1c1nc(-c2ccc3c(c2)COC[C@]32CCC(=O)N2)c2c(n1)C(F)(F)CC2 (single isomer, unassigned) [Example 641]")
1.31
>>> observed_measurement("CC1OC[C@@]2(COc3cc(-c4nc(N5C[C@@H](O)[C@@H]5C)nc5c4CCC5(F)F)ccc32)NC1=O (single isomer, unassigned) [Example 559]")
0.51
>>> observed_measurement("C[C@H]1CCN1c1nc2c(c(-c3cccc([C@H]4C[C@@H](C(=O)O)C4)c3)n1)CCC2 (single isomer, unassigned) [Example 440]")
1.91
>>> observed_measurement("C[C@H]1[C@H](O)CN1c1nc(-c2ccc3c(c2)COC[C@@]32COC(=O)N2)c2c(n1)C(F)(F)CC2 (single isomer, unassigned) [Example 555]")
1.46
>>> observed_measurement("C[C@H]1[C@H](O)CN1c1nc(-c2ccc3c(c2)OC[C@@]32COCC(=O)N2)c2c(n1)C(F)(F)CC2 (single isomer, unassigned) [Example 499]")
0.20

GET /values?readout=log10(EC50)&item= CCN1C(=O)N[C@@]2(COc3cc(-c4nc(N5C[C@@H](O)[C@@H]5C)nc5c4CCC5(F)F)ccc32)C1=O (single isomer, unassigned) [Example 698]
1.85

GET /values?readout=log10(EC50)&item= C[C@H]1CCN1c1nc2c(c(-c3cccc([C@H]4C[C@H](C(=O)O)C4)c3)n1)CCC2 (single isomer, unassigned) [Example 441]
2.32

====

Target: human KHK-A (Homo sapiens (Human))
Sequence (P50053 other isoform, or with tags, fused parts or gaps): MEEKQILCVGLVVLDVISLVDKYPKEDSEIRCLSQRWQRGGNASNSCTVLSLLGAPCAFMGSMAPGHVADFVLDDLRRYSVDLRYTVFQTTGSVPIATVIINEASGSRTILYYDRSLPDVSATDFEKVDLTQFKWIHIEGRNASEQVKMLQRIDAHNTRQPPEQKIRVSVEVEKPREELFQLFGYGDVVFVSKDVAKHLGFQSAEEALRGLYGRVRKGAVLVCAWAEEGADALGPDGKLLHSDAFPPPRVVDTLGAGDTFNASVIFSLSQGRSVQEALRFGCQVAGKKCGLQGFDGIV
Test: KHK Biochemical Assay (IC50), ADP-Glo, KHK-A
Conditions: average of at least two separate assays
In this section we review reported pIC50 values for a set of molecules.
The quantity pIC50 is defined as the negative base-10 logarithm of the molar concentration.

Worked cases, pIC50 given:
>>> observed_measurement("C[C@H]1CCN1c1nc2c(c(-c3cccc([C@H]4C[C@@H]4C(N)=O)c3)n1)CCC2 (stereo in doubt) [Example 456]")
7.35
>>> observed_measurement("C[C@H]1[C@H](O)CN1c1nc(-c2ccc([C@]3(N)CCOC3)cc2)c2c(n1)C(F)(F)CC2 (single isomer, unassigned) [Example 518]")
8.64
>>> observed_measurement("C[C@H]1[C@H](O)CN1c1nc(-c2ccc3c(c2)COCC32COC(=O)N2)c2c(n1)C(F)(F)CC2 (stereo partly shown) [Example 554]")
7.53

Okay, now this molecule:
GET /values?readout=pIC50&item= NC1(c2ccc(-c3nc(N4CC[C@@H]4C(F)(F)F)nc4c3CCC4(F)F)cc2)COC1 [Example 696]
9.00

====

In this section we review reported EC50 values for a set of compounds.
Biological target: KHK-C expressed in NRK-52E cells (Homo sapiens (Human), UniProt P50053)
Test: KHK-C Cell-based Assay (EC50), NRK CTG, fructose-mediated ATP-depletion

Worked cases, EC50 given:
>>> observed_measurement("C[C@H]1[C@H](O)CN1c1nc(-c2cccc([S@@](C)(=N)=O)c2)c2c(n1)C(F)(F)CC2 (single isomer, unassigned)")
"41.8 nM"
>>> observed_measurement("C[C@H]1[C@H](F)CN1c1nc2c(c(-c3ccc(CN)cc3)n1)CCC2")
"130 nM"
>>> observed_measurement("C[C@H]1CCN1c1nc2c(c(-c3cccc(C4CC(C(=O)O)C4)c3)n1)CCC2 (some centres unmarked)")
"124 nM"
>>> observed_measurement("C[C@H](NS(C)(=O)=O)c1cccc(-c2nc(N3C[C@@H](O)[C@@H]3C)nc3c2CCC3(F)F)c1")
"162 nM"
>>> observed_measurement("NC(=O)c1ccc(-c2nc(N3CCn4nccc43)nc3c2CCC3)cc1")
"> 5000 nM"
>>> observed_measurement("COc1cc(-c2nc(N3CC[C@@H]3C)nc3c2CCC3)ccc1C#N")
"1810 nM"
>>> observed_measurement("C[C@H]1[C@H](O)CN1c1nc(-c2cc3c(c(CNS(C)(=O)=O)c2)OCC3)c2c(n1)C(F)(F)CC2")
"27.4 nM"

GET /values?readout=EC50&item= `C[C@H]1[C@H](O)CN1c1nc(-c2ccc(C(N)=O)c(OC(F)(F)F)c2)c2c(n1)C(F)(F)CC2`
89.1 nM

====

Target: human KHK-C (Homo sapiens (Human), UniProt P50053)
Test: KHK Biochemical Assay (IC50), ADP-Glo, KHK-C
Conditions: ADP-Glo; average of at least two separate assays
metric: IC50 (nM)
// return numeric value only (unit: nM, not printed)

Worked cases, IC50 given:
>>> observed_measurement("C[C@H]1CCN1c1nc2c(c(-c3cccc(C4(C(=O)O)CC4)c3)n1)CCC2")
239
>>> observed_measurement("C[C@H]1[C@H](O)CN1c1nc(-c2cnc3c(c2)OC[C@@H]3NS(C)(=O)=O)c2c(n1)C(F)(F)CC2 (single isomer, unassigned)")
6.4
>>> observed_measurement("C[C@H]1CCN1c1nc2c(c(-c3cc[nH]n3)n1)CCC2")
73.1
>>> observed_measurement("C[C@H]1CNC(=O)c2ccc(-c3nc(N4C[C@@H](O)[C@@H]4C)nc4c3CCC4(F)F)cc2O1")
3.4
>>> observed_measurement("C[C@H]1CCN1c1nc2c(c(-c3cnsc3)n1)CCC2")
104

Fill in the recorded IC50 for this molecule, with human KHK-C (Homo sapiens (Human), UniProt P50053) as test system: `CNS(=O)(=O)c1cccc(-c2nc(N3CC[C@@H]3C)nc3c2CCC3)c1`
37.7

Fill in the recorded IC50 for this molecule, with human KHK-C (Homo sapiens (Human), UniProt P50053) as test system: `CC(=O)Nc1ccc(-c2nc(N3CC[C@@H]3C)nc3c2CCC3)cc1`
72.7

Fill in the recorded IC50 for this molecule, with human KHK-C (Homo sapiens (Human), UniProt P50053) as test system: `C[C@H]1CCN1c1nc2c(c(-c3ccn(C)n3)n1)CCC2`
193

Fill in the recorded IC50 for this molecule, with human KHK-C (Homo sapiens (Human), UniProt P50053) as test system: `C[C@@H]1N(c2nc(-c3ccc4c(c3)OC[C@@]43COC(=O)N3)c3c(n2)C(F)(F)CC3)C[C@@]1(C)O`
1

Fill in the recorded IC50 for this molecule, with human KHK-C (Homo sapiens (Human), UniProt P50053) as test system: `C[C@H]1CCN1c1nc(-c2cccc(C(N)=O)c2)c2c(cnn2C)n1`
532

Fill in the recorded IC50 for this molecule, with human KHK-C (Homo sapiens (Human), UniProt P50053) as test system: `Cc1cnc(-c2nc(N3CC[C@@H]3C)nc3c2CCC3)s1`
107

Fill in the recorded IC50 for this molecule, with human KHK-C (Homo sapiens (Human), UniProt P50053) as test system: `C[C@H]1CCN1c1nc2c(c(-c3ccc(C(N)=O)c(SCc4ccccc4)c3)n1)CCC2`
576

Fill in the recorded IC50 for this molecule, with human KHK-C (Homo sapiens (Human), UniProt P50053) as test system: `C[C@H]1CCN1c1nc2c(c(-c3cn4cnc(C(N)=O)c4s3)n1)CCC2`
2.4

Fill in the recorded IC50 for this molecule, with human KHK-C (Homo sapiens (Human), UniProt P50053) as test system: `C[C@H]1[C@H](O)CN1c1nc2c(c(-c3ccc(C(N)=O)cc3)n1)CC2`
572

Fill in the recorded IC50 for this molecule, with human KHK-C (Homo sapiens (Human), UniProt P50053) as test system: `C[C@H]1[C@H](O)CN1c1nc(-c2cccc(S(N)(=O)=O)c2)c2c(cnn2C)n1`
836

Fill in the recorded IC50 for this molecule, with human KHK-C (Homo sapiens (Human), UniProt P50053) as test system: `C[C@H]1CCN1c1nc2c(c(-c3cccc(CN(C)C)c3)n1)CCC2`
14.7

Fill in the recorded IC50 for this molecule, with human KHK-C (Homo sapiens (Human), UniProt P50053) as test system: C[C@H]1CCN1c1nc2c(c(-c3cccc(S(=N)(=O)C4CCOCC4)c3)n1)CCC2 (stereo partly drawn)
31.6
